assay: Cytotoxicity assay; format: cell-based; details: mouse, Balb/C 3T3 mouse fibroblasts (clone A31)
observable: IC50 at 48 h (µM)
One number for each entry, in µM.

>  <compound>
O=C1C(Cl)=C(N(C(=O)c2ccccc2Cl)C(=O)c2ccccc2Cl)C(=O)c2ccccc21 [IMDNQ8]

>  <observable>
IC50 at 48 h

>  <experimental-value>
26.5

$$$$

The following compounds each have a reported value; give each one's IC50 at 48 h.
1. O=C1C(Br)=C(N(C(=O)c2ccc(F)cc2)C(=O)c2ccc(F)cc2)C(=O)c2ccccc21 [IMDNQ5]
2. O=C1C(Br)=C(N(C(=O)c2ccccc2Cl)C(=O)c2ccccc2Cl)C(=O)c2ccccc21 [IMDNQ6]
3. O=C1C(Cl)=C(N(C(=O)c2ccc(F)cc2)C(=O)c2ccc(F)cc2)C(=O)c2ccccc21 [IMDNQ9]

12.8
14.2
21.8
